Tested on: MDA-MB-231 breast
RUN_DESCRIPTION: NCI tumour cell line growth inhibition, 48 h
Form field: TGI (one value per entry).

COMPOUND	TGI
O=C1/C(=C\c2cccn2Cc2ccccc2)c2ccccc2N1c1c(Cl)cccc1Cl	> 100 µM
CC12CCC(C(=O)OC1=O)C2(C)C (stereo not drawn)	> 100 µM

Shifting focus to the compound that follows.
Req: Retrieve TGI on MDA-MB-231 breast; query Nc1nc(Nc2ccccc2)c2ncn(Cc3cc4c(cc3Br)OCO4)c2n1
Resp: > 51.9 µM

----------
Tested on: HT29 colon
RUN_DESCRIPTION: NCI tumour cell line growth inhibition, 48 h
MEASURED_ENDPOINT: TGI

# annotated cases, reported TGI shown
MOLECULE	TGI
O=[N+]([O-])c1ccc(-n2nnc(C3=NCCCN3)c2-c2ccc(Cl)cc2)cc1	> 100 µM
CN1CCc2c(Sc3ccc(C(=O)NO)cc3)c3ccccc3n2C1	12.2 µM
O=C(O)c1nc(-c2ccccn2)c(-c2ccccn2)nc1C(=O)O	8.54 µM

Req: Using the record for CCOC(=O)C1N(S(=O)(=O)c2ccc(C)cc2)CCC12C(c1ccc(OC)cc1)NC1CCCCC12 (stereo not given) , state its measured TGI.
Resp: > 100 µM

Req: Using the record for COc1c(C)c2c(c(C)c1Cl)Oc1c(C=O)c(O)c(Cl)c(C)c1C(=O)O2 , state its measured TGI.
Resp: > 100 µM
